Cited source for all entries: patent US20150119373A1

system: HIV-1 strain 92HT599; assay: Antiviral activity: p24 estimation in MT2 cells infected with HIV-1 strain 92HT599; type: cell-based; conditions: Human immunodeficiency virus 1; 100 nM; MT2 cells, HIV-1 92HT599, ~96 hours, p24; read-out: Antiviral activity % inhibition 100 nM
quantity: inhibition at 0.1 µM (%)
Answers are plain numbers, in %.

Provide the reported inhibition at 0.1 µM of each entry below, same order.
1. COCCOCCOC1CCN(C(=O)[C@]23CC[C@@H](C4(C)CC4)[C@@H]2[C@H]2CC[C@@H]4[C@@]5(C)CC[C@H](OC(=O)CC(C)(C)C(=O)O)C(C)(C)[C@@H]5CC[C@@]4(C)[C@]2(C)CC3)CC1
2. CCN1CCN(C2CCN(C(=O)[C@]34CC[C@@H](C5(C)CC5)[C@@H]3[C@H]3CC[C@@H]5[C@@]6(C)CC[C@H](OC(=O)[C@H]7C[C@@H](C(=O)O)C7(C)C)C(C)(C)[C@@H]6CC[C@@]5(C)[C@]3(C)CC4)CC2)CC1

1: 99; 2: 100
